ASSAY TARGET: UniProtKB Q14145
Sequence (Q14145 whole entry): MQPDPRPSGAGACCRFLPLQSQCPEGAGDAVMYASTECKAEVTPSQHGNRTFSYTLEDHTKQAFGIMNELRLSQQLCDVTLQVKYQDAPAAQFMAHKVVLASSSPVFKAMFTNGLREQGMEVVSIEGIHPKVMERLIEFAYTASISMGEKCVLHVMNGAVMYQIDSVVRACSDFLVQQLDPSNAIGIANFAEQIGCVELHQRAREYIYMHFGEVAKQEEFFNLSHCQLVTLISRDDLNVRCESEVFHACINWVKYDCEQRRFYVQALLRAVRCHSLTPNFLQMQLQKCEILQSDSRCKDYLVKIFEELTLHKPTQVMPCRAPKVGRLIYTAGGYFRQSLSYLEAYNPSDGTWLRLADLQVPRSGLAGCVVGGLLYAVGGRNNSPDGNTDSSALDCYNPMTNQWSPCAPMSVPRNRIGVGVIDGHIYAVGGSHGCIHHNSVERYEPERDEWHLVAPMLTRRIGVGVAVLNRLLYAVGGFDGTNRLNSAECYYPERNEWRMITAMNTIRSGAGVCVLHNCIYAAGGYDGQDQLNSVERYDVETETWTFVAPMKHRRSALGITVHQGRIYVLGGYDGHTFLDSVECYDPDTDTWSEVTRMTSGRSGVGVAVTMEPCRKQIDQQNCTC
ASSAY TEXT: Fluorescence anisotropy assay
Assay type: binding
TEST PARAMETERS: Keap1-Nrf2 binding affinity, fluorescence anisotropy assay; duplicated experiment, average
Reported pKd values for the following compounds.
API: returns pKd as number; meaning -log10 of concentration in mol/L.

Recorded results for 4 compounds are shown here.
SMILES STR	pKd
COc1ccc(S(=O)(=O)N(CC(N)=O)c2ccc(N(CC(N)=O)S(=O)(=O)c3cn(C)cn3)c3ccccc23)cc1	5.94
COc1ccc(S(=O)(=O)N(CC(N)=O)c2ccc(N(CC(N)=O)S(=O)(=O)c3c(C)c(C)c4c(c3C)CC(C)(C)O4)c3ccccc23)cc1	5.49
COc1ccc(S(=O)(=O)N(CC(N)=O)c2ccc(N(CC(N)=O)S(=O)(=O)N3CCOCC3)c3ccccc23)cc1	5.68
COc1ccc(S(=O)(=O)N(CC(N)=O)c2ccc(N(CC(N)=O)S(=O)(=O)c3sc(N(CC(N)=O)C(C)=O)nc3C)c3ccccc23)cc1	5.84

Given COc1ccc(S(=O)(=O)N(CC(N)=O)c2ccc(N(CC(N)=O)S(=O)(=O)c3cnn(C)c3)c3ccccc23)cc1 , respond with its pKd.
5.94

Given COc1ccc(S(=O)(=O)N(CC(N)=O)c2ccc(N(CC(N)=O)S(=O)(=O)c3ccc4c(c3)CCO4)c3ccccc23)cc1 , respond with its pKd.
5.89

Given COc1ccc(S(=O)(=O)N(CC(N)=O)c2ccc(N(CC(N)=O)S(=O)(=O)c3cccs3)c3ccccc23)cc1 , respond with its pKd.
5.96

Given COc1ccc(S(=O)(=O)N(CC(N)=O)c2ccc(N(CC(N)=O)S(=O)(=O)c3ccc4ccccc4c3)c3ccccc23)cc1 , respond with its pKd.
5.88
